- experimental-target: Cannabinoid receptor 2 (Rattus norvegicus)
- Sequence (whole entry): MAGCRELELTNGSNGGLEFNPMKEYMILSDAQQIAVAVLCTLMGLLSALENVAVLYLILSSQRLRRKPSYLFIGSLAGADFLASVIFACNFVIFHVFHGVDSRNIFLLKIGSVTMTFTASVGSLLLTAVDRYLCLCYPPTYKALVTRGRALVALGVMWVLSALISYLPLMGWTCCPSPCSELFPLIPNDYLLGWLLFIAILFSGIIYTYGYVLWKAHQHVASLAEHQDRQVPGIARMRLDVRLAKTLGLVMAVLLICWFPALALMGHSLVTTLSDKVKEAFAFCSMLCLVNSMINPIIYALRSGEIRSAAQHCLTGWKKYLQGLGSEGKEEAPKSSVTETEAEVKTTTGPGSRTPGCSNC
- protocol-description: Agonist activity at rat CB2 receptor assessed as inhibition of forskolin-induced cAMP production by cell based assay relative to CP-55940
- Assay type: functional
- Set-up: concentration or dose not given beside the values
Here the recorded Activity is given for each entry.
recorded-metric: Activity (%)

line-notation: CC1(C)C(C(=O)c2cn(CCCCO)c3ccccc23)C1(C)C
value: 104
--
line-notation: CC1(C)C(C(=O)c2cn(CC3CCOCC3)c3ccccc23)C1(C)C
value: 93
--
line-notation: Cc1c(C(=O)c2cccc3ccccc23)c2cccc3c2n1[C@H](CN1CCOCC1)CO3
value: 46
--
line-notation: CC1(C)C(C(=O)c2cn(CCN3CCOC3=O)c3ccccc23)C1(C)C
value: 99

----------
- Organism: Homo sapiens
- protocol-description: Selectivity ratio of Ki for human recombinant CB1 receptor to Ki for human recombinant CB2 receptor
Here the recorded Ratio Ki is given for each entry.

line-notation: CC1(C)C(C(=O)c2cn(CCN3CCCC3)c3ccccc23)C1(C)C
Ratio Ki: > 1720
--
line-notation: O=C(c1cn(CCN2CCOCC2)c2ccccc12)C12CC3CC(CC1C3)C2
Ratio Ki: > 435
--
line-notation: CC1(C)C(C(=O)c2cn(CCN3CCCC3=O)c3ccccc23)C1(C)C
Ratio Ki: > 182
